target.system: AHR (Homo sapiens)
Construct: U87 MG glioblastoma cells (ATCC #HTB-14) endogenously expressing AHR; endogenous in cells; host or cells: U87 MG glioblastoma cells (ATCC #HTB-14)
Sequence (P35869 11-848): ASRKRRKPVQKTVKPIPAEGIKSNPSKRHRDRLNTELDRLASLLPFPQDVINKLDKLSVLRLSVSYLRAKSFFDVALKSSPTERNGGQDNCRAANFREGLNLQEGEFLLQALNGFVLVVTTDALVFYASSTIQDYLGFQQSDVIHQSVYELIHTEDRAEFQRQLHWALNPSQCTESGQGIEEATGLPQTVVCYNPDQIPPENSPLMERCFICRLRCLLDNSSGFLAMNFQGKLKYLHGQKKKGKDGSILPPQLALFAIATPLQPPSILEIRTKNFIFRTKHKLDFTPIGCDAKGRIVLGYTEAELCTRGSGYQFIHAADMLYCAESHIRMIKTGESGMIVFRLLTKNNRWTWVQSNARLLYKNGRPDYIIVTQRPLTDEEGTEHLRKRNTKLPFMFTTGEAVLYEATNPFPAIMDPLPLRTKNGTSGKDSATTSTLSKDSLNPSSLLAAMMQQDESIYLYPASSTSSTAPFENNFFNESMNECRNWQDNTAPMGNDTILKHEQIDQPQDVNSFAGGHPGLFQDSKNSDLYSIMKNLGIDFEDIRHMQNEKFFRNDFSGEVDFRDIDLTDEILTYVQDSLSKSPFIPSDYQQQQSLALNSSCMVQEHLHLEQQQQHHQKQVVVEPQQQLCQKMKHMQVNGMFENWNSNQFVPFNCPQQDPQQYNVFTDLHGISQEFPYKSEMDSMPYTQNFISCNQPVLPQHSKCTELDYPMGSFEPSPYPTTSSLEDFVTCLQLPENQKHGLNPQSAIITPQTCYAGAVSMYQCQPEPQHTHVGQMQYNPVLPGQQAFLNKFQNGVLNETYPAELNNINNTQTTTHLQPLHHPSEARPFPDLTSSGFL
method: In vitro assay 1: antagonism in human cell line (AHR transactivation, firefly luciferase reporter, kynurenic acid prestimulated)
Assay type: cell-based
assay.conditions: AHR Antagonism Human IC50 [M], firefly luciferase reporter
Description: Examples were tested in selected biological assays one or more times. […] Firefly luciferase and Renilla activity was determined by the DualGlo Luciferase Assay System (Promega, #2920). […]
measured.parameter: IC50 (M)
Write the answer as a number in M, unit excluded.

Query block: Given the entry COCCNC(=O)[C@H](Nc1nc2c(Br)cccc2c2nc(-c3ccc(OC)cc3)nn12)C(C)C , report its measured IC50.
Result block: 3.26e-09

Query block: Given the entry C[C@@H](Nc1nc2c(Br)cccc2c2nc(-c3cnn(C)c3)nn12)C(=O)N1C[C@@H]2C[C@H]1CO2 , report its measured IC50.
Result block: 1.74e-08

Query block: Given the entry Cn1cc(-c2nc3c4cccc(Br)c4nc(N[C@H]4CS(=O)(=O)CCNC4=O)n3n2)cn1 , report its measured IC50.
Result block: 1.69e-07

Query block: Given the entry CC[C@@H](Nc1nc2ccccc2c2nc(-c3cn(C)nn3)nn12)C(N)=O , report its measured IC50.
Result block: 2.94e-06

Query block: Given the entry CCSc1cccc2c1nc(N[C@@H]1CNCCNC1=O)n1nc(-c3cnn(C)c3)nc21 , report its measured IC50.
Result block: 4.23e-07

* * *

target.system: AHR (Mus musculus)
Sequence (P30561 1-848 P471L/N533S/M589L): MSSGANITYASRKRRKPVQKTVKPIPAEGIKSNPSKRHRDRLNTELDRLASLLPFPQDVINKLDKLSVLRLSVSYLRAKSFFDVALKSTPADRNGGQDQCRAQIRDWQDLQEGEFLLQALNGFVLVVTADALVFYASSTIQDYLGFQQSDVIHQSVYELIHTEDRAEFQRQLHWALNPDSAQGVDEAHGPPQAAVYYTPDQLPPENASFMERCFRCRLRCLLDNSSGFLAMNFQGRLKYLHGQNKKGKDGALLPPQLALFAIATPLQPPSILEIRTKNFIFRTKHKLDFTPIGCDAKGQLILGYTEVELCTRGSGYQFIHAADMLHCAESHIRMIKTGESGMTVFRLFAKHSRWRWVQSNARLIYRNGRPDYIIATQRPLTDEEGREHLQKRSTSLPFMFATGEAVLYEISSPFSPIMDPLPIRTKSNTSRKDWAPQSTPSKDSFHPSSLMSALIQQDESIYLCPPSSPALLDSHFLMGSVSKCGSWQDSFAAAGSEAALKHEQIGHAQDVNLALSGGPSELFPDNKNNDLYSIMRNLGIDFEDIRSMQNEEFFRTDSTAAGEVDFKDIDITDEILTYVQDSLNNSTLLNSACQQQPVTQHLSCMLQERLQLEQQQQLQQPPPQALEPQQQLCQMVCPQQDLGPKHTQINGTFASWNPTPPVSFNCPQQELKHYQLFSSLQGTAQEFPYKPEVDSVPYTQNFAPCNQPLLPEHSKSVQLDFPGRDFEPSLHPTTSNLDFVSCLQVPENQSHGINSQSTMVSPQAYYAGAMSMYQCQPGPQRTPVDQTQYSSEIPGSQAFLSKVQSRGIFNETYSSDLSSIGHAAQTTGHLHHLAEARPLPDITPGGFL
method: In vitro assay 3: antagonism in mouse cell line (AHR transactivation, firefly luciferase reporter, kynurenic acid prestimulated)
Assay type: cell-based
assay.conditions: mouse Hepa 1c1c7 cells, 200 μM kynurenic acid, 20 hours, read-out: AHR Antagonism Mouse IC50
measured.parameter: pIC50
For clarity, pIC50 is expressed as the negative log10 of concentration in mol/L.

For orientation, consider the following solved cases.
| compound | target.system | measured.parameter | result.number |
| --- | --- | --- | --- |
| O=C1NCCCC[C@@H]1Nc1nc2ccccc2c2nc(-c3ccncc3F)nn12 [Example 481] | AHR (Mus musculus) | pIC50 | 6.98 |
| Cn1cc(-c2nc3c4ccccc4nc(N[C@@H]4CCCCNC4=O)n3n2)nn1 [Example 435] | AHR (Mus musculus) | pIC50 | 6.79 |
| O=C1NCCCC[C@H]1Nc1nc2c(F)cccc2c2nc(-c3ccncc3)nn12 [Example 552] | AHR (Mus musculus) | pIC50 | 6.64 |

Query block: Given the entry Cc1nn(C)c(C)c1-c1nc2c3cccc(C(F)(F)F)c3nc(N[C@@H]3CCCCNC3=O)n2n1 [Example 750] , report its measured pIC50.
Result block: 8.85

Query block: Given the entry O=C1NCCNC[C@H]1Nc1nc2ccccc2c2nc(-c3cnn(CC4CC4)c3)nn12 [Example 416] , report its measured pIC50.
Result block: 6.45

Query block: Given the entry Cn1cc(-c2nc3c4ccccc4nc(NC4CCNC4=O)n3n2)cn1 (single isomer, unassigned) [Example 18] , report its measured pIC50.
Result block: 5.65

Query block: Given the entry CSc1cccc2c1nc(N[C@@H]1CCCCNC1=O)n1nc(-c3cnn(C(C)C)c3)nc21 [Example 771] , report its measured pIC50.
Result block: 6.98
